# measured target: bovine serum albumin (BSA) (Bos taurus, UniProt P02769)
# Construct: purchased
# Sequence (P02769 25-607): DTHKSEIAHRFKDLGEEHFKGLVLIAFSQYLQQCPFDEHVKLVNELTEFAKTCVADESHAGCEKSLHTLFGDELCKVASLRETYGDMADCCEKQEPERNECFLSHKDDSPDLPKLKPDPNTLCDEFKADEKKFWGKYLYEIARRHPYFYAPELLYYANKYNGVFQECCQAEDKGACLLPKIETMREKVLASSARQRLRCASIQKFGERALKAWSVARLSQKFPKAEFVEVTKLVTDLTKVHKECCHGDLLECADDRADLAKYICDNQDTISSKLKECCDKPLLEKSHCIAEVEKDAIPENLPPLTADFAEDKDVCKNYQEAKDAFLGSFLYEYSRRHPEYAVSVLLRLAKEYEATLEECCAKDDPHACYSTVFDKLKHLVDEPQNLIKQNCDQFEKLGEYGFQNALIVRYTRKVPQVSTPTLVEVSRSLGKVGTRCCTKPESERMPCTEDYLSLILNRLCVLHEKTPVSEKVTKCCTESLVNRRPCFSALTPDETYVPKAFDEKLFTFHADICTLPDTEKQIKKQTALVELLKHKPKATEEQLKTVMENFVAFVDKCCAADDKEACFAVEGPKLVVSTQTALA
# assay text: Albumin binding by tryptophan fluorescence emission quenching
# assay setup: BSA 3 μM, buffer pH 7.0, Scatchard equation
metric: K(BSA), BSA-binding constant

# compound, measured target, K(BSA), BSA-binding constant
measured = [
    ("CN1CCN(c2c(F)cc3c(=O)c(C(=O)[O-])cn(CCF)c3c2F)CC1.CN1CCN(c2c(F)cc3c(=O)c(C(=O)[O-])cn(CCF)c3c2F)CC1.[Ni+2].c1ccc(Nc2ccccn2)nc1 [complex 18, [Ni(flrx)2(bipyam)]]", "bovine serum albumin (BSA) (Bos taurus, UniProt P02769)", "4.77(±0.15) × 10^4 M^−1"),
    ("CN1CCN(c2c(F)cc3c(=O)c(C(=O)[O-])cn(CCF)c3c2F)CC1.CN1CCN(c2c(F)cc3c(=O)c(C(=O)[O-])cn(CCF)c3c2F)CC1.CO.CO.[Co+2] [complex 4, [Co(flrx)2(MeOH)2]]", "bovine serum albumin (BSA) (Bos taurus, UniProt P02769)", "1.02(±0.05) × 10^5 M^−1"),
    ("CN1CCN(c2c(F)cc3c(=O)c(C(=O)[O-])cn(CCF)c3c2F)CC1.CN1CCN(c2c(F)cc3c(=O)c(C(=O)[O-])cn(CCF)c3c2F)CC1.CO.CO.[Ni+2] [complex 5, [Ni(flrx)2(MeOH)2]]", "bovine serum albumin (BSA) (Bos taurus, UniProt P02769)", "1.75(±0.07) × 10^5 M^−1"),
    ("CN1CCN(c2c(F)cc3c(=O)c(C(=O)[O-])cn(CCF)c3c2F)CC1.CN1CCN(c2c(F)cc3c(=O)c(C(=O)[O-])cn(CCF)c3c2F)CC1.[Ni+2].c1cnc2c(c1)ccc1cccnc12 [complex 19, [Ni(flrx)2(phen)]]", "bovine serum albumin (BSA) (Bos taurus, UniProt P02769)", "8.01(±0.28) × 10^4 M^−1"),
]

// switching to the query compound
[Q] Name the reported K(BSA), BSA-binding constant value associated with the compound CN1CCN(c2c(F)cc3c(=O)c(C(=O)[O-])cn(CCF)c3c2F)CC1.CN1CCN(c2c(F)cc3c(=O)c(C(=O)[O-])cn(CCF)c3c2F)CC1.O.O.[Mn+2] [complex 2, [Mn(flrx)2(H2O)2]]
[A] 1.45(±0.04) × 10^5 M^−1

---

# measured target: human serum albumin (HSA) (Homo sapiens, UniProt P02768)
# Construct: purchased
# Sequence (P02768 25-609): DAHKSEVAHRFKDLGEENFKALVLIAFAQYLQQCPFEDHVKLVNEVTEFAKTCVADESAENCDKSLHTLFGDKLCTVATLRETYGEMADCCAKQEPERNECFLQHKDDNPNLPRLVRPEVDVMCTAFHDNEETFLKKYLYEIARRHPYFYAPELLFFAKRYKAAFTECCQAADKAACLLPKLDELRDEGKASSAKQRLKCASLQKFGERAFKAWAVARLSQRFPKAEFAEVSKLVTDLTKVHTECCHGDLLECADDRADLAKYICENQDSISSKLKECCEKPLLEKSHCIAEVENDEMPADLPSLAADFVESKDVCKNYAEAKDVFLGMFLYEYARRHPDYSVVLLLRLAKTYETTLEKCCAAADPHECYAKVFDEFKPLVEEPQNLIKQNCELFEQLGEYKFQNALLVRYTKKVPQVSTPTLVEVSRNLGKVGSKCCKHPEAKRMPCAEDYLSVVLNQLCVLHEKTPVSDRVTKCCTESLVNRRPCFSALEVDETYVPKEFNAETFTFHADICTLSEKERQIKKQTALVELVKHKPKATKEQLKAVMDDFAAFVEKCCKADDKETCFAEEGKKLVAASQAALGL
# assay text: Albumin binding by tryptophan fluorescence emission quenching
# assay setup: HSA 3 μM, buffer pH 7.0, λexc 295 nm, Stern–Volmer, τ0 = 10^–8 s
Attribute: kq(HSA), HSA-quenching constant

[Q] Name the reported kq(HSA), HSA-quenching constant value associated with the compound CN1CCN(c2c(F)cc3c(=O)c(C(=O)[O-])cn(CCF)c3c2F)CC1.CN1CCN(c2c(F)cc3c(=O)c(C(=O)[O-])cn(CCF)c3c2F)CC1.[Co+2].c1cnc2c(c1)ccc1cccnc12 [complex 17, [Co(flrx)2(phen)]]
[A] 6.49(±0.21) × 10^12 M^−1s^−1

[Q] Name the reported kq(HSA), HSA-quenching constant value associated with the compound CN1CCN(c2c(F)cc3c(=O)c(C(=O)[O-])cn(CCF)c3c2F)CC1.CN1CCN(c2c(F)cc3c(=O)c(C(=O)[O-])cn(CCF)c3c2F)CC1.O.O.[Mn+2] [complex 2, [Mn(flrx)2(H2O)2]]
[A] 1.42(±0.04) × 10^13 M^−1s^−1

[Q] Name the reported kq(HSA), HSA-quenching constant value associated with the compound CN1CCN(c2c(F)cc3c(=O)c(C(=O)[O-])cn(CCF)c3c2F)CC1.CN1CCN(c2c(F)cc3c(=O)c(C(=O)[O-])cn(CCF)c3c2F)CC1.CO.CO.[Zn+2] [complex 3, [Zn(flrx)2(MeOH)2]]
[A] 2.26(±0.10) × 10^13 M^−1s^−1

Measured values drawn from paper PMC9144902 for this set.
